# assay remarks: qHTS for Inhibitors of human tyrosyl-DNA phosphodiesterase 1 (TDP1): qHTS in cells in absence of CPT; note: nearly all actives have a fitted effect of over 55% in size
# details: DT40 Tdp1-/- hTDP1 cells, no CPT, ATP luminescence, 48 h
The campaign covered roughly 420,000 compounds. About 64,000 (15%) were called active. About 27% were inconclusive and are not listed. Calls come from the whole dose curve; as a rule, active = well fitted inhibition curve with a large enough effect; inconclusive = small, poorly fitted or top-dose-only effect; inactive = flat fitted curve, though single readings scatter. Not all results are given here.
Outcome codes: active, inactive

>  <compound>
CCNC(=O)COc1cc(C)c(Br)c(C)c1

>  <group>
inactive

$$$$
>  <compound>
CC(C)(C)C(=O)CSc1ccc(S(=O)(=O)N2CCCC2)cn1

>  <group>
inactive

$$$$
>  <compound>
COc1cccc(C(O)c2nc3ccccc3n2C)c1 (stereo unspecified)

>  <group>
inactive

$$$$
>  <compound>
COc1ccccc1C(=O)NC(CCSC)C(=O)NNC(=O)c1csc(N2CCOCC2)n1 (stereo unspecified)

>  <group>
inactive

$$$$
>  <compound>
FC(F)Oc1ccccc1NC(=S)Nc1cccc(Cl)c1Cl

>  <group>
inactive

$$$$
>  <compound>
CCc1cc(-c2nnc(SCC(=O)NC3CC3)n2C)cs1

>  <group>
inactive

$$$$
>  <compound>
CN(C)C(=O)N1CCNCC1

>  <group>
inactive

$$$$
>  <compound>
O=C(Nc1ncccn1)c1cccs1

>  <group>
inactive

$$$$
>  <compound>
CS(=O)(=O)N1CCC[C@@]2(CCN(c3ccncc3)C2)C1

>  <group>
inactive

$$$$
>  <compound>
COc1ccc(OC)c(C2C3=C(N=c4s/c(=C\c5cccc(O)c5)c(=O)n42)c2ccccc2CC3)c1 (stereo unspecified)

>  <group>
active

$$$$
>  <compound>
COc1ccc(C2=CC(c3cccc(OC)c3)n3nnnc3N2)cc1 (stereo unspecified)

>  <group>
active

$$$$
